# Test system: 3T3 cells
# measurement_notes: Cytotoxicity against 3T3 cells
# Type: cell-based
pEC50: −log10 of the molar value.
Parameter threshold = 4. Response is true (1) when pEC50 meets or exceeds it, else false (0).

Known results for molecules:
molecule	category
C[N+]1(C)CCN(c2ccc(-c3ccc(-c4ccc(N5CC[N+](C)(C)CC5)cc4)o3)cc2)CC1	false (0)
NCCCOc1cccc(-c2cncc(-c3ccc(-c4cncc(-c5cccc(OCCCN)c5)c4)s3)c2)c1	true (1)
N=C(N)NCCc1cccc(-c2ccc(-c3cccc(CCNC(=N)N)c3)o2)c1	false (0)

Query string: Is pEC50 for `NCCCSc1ccc(NC(=O)Nc2ccc(SCCCN)c(C(F)(F)F)c2)cc1C(F)(F)F` at or above 4?
Result string: true (1)

Each recorded value in this set is attributed to patent US20150094294A1.
